These entries and their values trace back to ChEMBL document CHEMBL1201862.

# AC50 per entry
# TARGET_ENTITY: FAD-linked sulfhydryl oxidase ALR (Homo sapiens, UniProt P55789)
# Sequence (P55789 whole entry): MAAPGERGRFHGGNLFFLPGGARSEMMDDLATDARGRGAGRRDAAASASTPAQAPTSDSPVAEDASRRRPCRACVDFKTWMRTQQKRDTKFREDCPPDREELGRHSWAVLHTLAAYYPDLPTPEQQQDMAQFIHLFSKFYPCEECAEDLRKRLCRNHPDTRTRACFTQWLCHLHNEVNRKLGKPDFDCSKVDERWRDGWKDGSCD
# ASSAY_METHOD_TEXT: ALR-catalysed DTT oxidation blockers – biochemical, H2O2 detection, luminescence, cherry-pick, dose response (AID 493248)
Active and inactive are the calls of the source.

Here are 3 molecules together with their reported answers.
In [3]: df
Out[3]:
                                   molecule                             target_entity           result
0           O=C(C1CCCCC1)N1CCN=C1SCc1cccnc1  FAD-linked sulfhydryl oxidase ALR (Homo sapiens, UniProt P55789)   97 nM (active)
1         O=C(NC1CC1)c1ccc(CSCc2ccccc2Cl)o1  FAD-linked sulfhydryl oxidase ALR (Homo sapiens, UniProt P55789)  549 nM (active)
2  Cc1nc2c(C)cccc2cc1C(=O)N/N=C/c1ccc(O)cc1  FAD-linked sulfhydryl oxidase ALR (Homo sapiens, UniProt P55789)   25 nM (active)

Assign AC50 to the following record: COc1ccc(NC2CCCN(C(=O)c3cn(C)c4ccccc34)C2)cc1 (stereo not given)
3100 nM (active)

Assign AC50 to the following record: "CSCC[C@H](NC(=O)N1CCn2c1nc1ccccc12)C(=O)NCc1ccco1"
6970 nM (active)

Assign AC50 to the following record: COc1cccc(N2CCN(C(=O)c3ccc(C[S+]([O-])c4ccc(Cl)cc4)o3)CC2)c1 (stereo not given)
3440 nM (active)

###

# EC50 per entry
# ASSAY_METHOD_TEXT: NIH3T3 cell viability loss – ATP luminescence, mouse fibroblasts, counter-screen, dose response (AID 2010);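 also: cells exposed to compound for about 90 hours before reading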
# Assay type: functional, cell-based
Active and inactive are the calls of the source.

>>> print(df.to_string())
                                   molecule                result
0  CC(C)Oc1ccc(CNCCC2(C(C)C)CCOC(C)(C)C2)cc1 (stereo not given)  > 60 µM (not active)
1            CCCCCCOc1ccc(CN2CCN(CC)CC2)cc1  > 30 µM (not active)
2  COc1cccc(CNC(=O)CCC2CCCN(Cc3cc4ccccc4o3)C2)c1 (stereo not given)  > 60 µM (not active)
3  O=C(Cn1c(-c2ccccc2)c[n+]2ccsc12)c1ccccc1  > 30 µM (not active)
4    O=C(C1CCCCC1)N(CCN1CCCC1)c1nc2ccccc2s1  > 60 µM (not active)

Assign EC50 to the following record: "Cc1ccc(S(=O)(=O)CC(=O)N(CCCN(C)C)c2nc3ccc(C)cc3s2)cc1"
> 30 µM (not active)

Assign EC50 to the following record: CC1CCCN(CCCNC(=O)c2cc3c(Cl)nc4ccccc4c3s2)C1 (stereo not given)
6.28 µM (active)

Assign EC50 to the following record: "CC(=O)Nc1ccc(Nc2c3ccccc3nc3ccccc23)cc1"
0.536 µM (active)

Assign EC50 to the following record: O=[N+]([O-])c1ccc(S(=O)(=O)NCC(c2cccnc2)N2CCc3ccccc32)cc1 (stereo not given)
> 60 µM (not active)

Assign EC50 to the following record: CCN1CC(CN(C)Cc2nc(-c3ccc(C(F)(F)F)cc3)oc2C)CC1=O (stereo not given)
32.6 µM (active)

###

# TARGET_ENTITY: Leucine aminopeptidase (Plasmodium falciparum 3D7, UniProt Q8IL11)
# Sequence (Q8IL11 whole entry): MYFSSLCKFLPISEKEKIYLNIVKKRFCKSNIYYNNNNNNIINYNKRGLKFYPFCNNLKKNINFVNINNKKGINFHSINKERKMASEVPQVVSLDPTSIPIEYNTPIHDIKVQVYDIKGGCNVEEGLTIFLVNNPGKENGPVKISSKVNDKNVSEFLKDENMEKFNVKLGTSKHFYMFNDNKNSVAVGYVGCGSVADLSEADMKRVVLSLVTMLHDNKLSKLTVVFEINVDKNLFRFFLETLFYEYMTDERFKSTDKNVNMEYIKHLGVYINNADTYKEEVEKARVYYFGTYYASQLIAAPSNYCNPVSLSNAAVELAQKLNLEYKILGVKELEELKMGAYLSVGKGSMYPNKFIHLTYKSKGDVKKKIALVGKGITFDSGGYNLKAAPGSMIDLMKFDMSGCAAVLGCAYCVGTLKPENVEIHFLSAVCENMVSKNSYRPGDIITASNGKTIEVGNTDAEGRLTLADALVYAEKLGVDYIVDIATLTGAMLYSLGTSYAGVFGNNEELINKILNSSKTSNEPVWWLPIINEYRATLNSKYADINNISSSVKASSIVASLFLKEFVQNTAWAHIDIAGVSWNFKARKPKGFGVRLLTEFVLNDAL
# ASSAY_METHOD_TEXT: P. falciparum M17LAP inhibitors, primary screen, biochemical, fluorogenic H-Leu-NHMec substrate, 1536-well (AID 1619)
# Assay type: functional
Active and inactive are the calls of the source.
METRIC: IC50

Here are 6 compounds together with their reported answers.
>>> df
                                   compound  metric            result
0  O=C(O)c1ccc(COc2ccc3ccccc3c2/C=C2/NC(=O)N(c3ccccc3)C2=O)cc1    IC50  24.6 µM (active)
1  CCNC(=O)NC(=O)C(C)Sc1ccc2c(c1)OCCO2 (configuration not stated)    IC50  7.93 µM (active)
2  CCc1c(C)nc(SCC(=O)Nc2ccc3c(c2)OCCO3)[nH]c1=O    IC50  10.2 µM (active)
3  C=CCn1c(SCC(=O)Nc2cccc3ccccc23)nc(=O)c(CC)c1O    IC50  4.06 µM (active)
4  N#Cc1cccc(NC(=O)CN2NS(=O)(=O)c3ccccc3C2=O)c1    IC50  14.9 µM (active)
5  CC(C)NC(=O)c1cc(C(=O)c2cc(Cl)ccc2O)coc1=N    IC50  2.15 µM (active)

Assign IC50 to the following record: "Cc1ccc(NC(=O)CSc2nc(O)c3c(n2)CCC3)cc1C"
5.9 µM (active)

###

# TARGET_ENTITY: Corticotropin-releasing factor receptor 2/Corticotropin-releasing factor-binding protein (Homo sapiens, UniProt P24387+Q13324)
# Sequence (Q13324 whole entry): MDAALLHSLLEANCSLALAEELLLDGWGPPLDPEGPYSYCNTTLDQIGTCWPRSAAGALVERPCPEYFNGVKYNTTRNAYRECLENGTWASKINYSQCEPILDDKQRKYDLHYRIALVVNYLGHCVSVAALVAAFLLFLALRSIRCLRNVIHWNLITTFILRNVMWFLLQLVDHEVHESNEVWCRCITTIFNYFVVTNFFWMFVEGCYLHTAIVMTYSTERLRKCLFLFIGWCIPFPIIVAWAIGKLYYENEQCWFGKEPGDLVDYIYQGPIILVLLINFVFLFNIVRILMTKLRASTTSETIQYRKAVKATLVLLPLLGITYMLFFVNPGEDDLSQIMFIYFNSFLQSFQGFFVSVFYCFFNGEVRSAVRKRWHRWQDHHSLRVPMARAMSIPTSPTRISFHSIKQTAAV
# Sequence (P24387 whole entry): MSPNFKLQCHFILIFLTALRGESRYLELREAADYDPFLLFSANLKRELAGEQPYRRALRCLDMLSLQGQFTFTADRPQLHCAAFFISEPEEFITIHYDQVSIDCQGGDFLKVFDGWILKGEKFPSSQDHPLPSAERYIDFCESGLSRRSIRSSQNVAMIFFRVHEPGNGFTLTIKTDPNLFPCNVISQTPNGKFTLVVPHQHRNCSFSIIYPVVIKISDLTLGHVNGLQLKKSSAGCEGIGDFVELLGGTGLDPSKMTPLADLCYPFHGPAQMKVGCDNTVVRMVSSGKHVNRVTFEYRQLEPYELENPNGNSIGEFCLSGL
# ASSAY_METHOD_TEXT: activators of CRF receptor 2 with binding protein – uHTS hits, confirmation (AID 602473)
# Type: functional
# EXPERIMENTAL_SETUP: read-out: EC50_Mean
Active and inactive are the calls of the source.
Field 'call' accepts Y for active, N for inactive

>>> df
                                   compound  qualitative_label
0          Oc1ccccc1C=NN=Cc1c(O)ccc2ccccc12                  Y
1  Cc1nc2c(C)cccc2cc1C(=O)N/N=C/c1ccc(O)cc1                  N
2  COc1cc(/C=C2\CCC(C)C3=C(c4cc(OC)c(OC)c(OC)c4)C(C#N)=C(N)OC32)cc(OC)c1OC (stereo unspecified)                  N
3   Cc1ccc(S(=O)(=O)NN=C(S)Nc2cccc(F)c2)cc1                  N

How did this test come out for "COc1ccc(N2CCN(CCCNC(=O)CN3CCN(Cc4ccccc4C)C3=O)CC2)cc1" ?
N

How did this test come out for "Cc1cc(OCC(=O)C(C)(C)C)c2c(C)c(C)c(=O)oc2c1" ?
N

How did this test come out for "COc1ccc(CNC(=O)CN2CCN(S(=O)(=O)c3cc(Br)ccc3Br)CC2)cc1OC" ?
N

How did this test come out for COC(=O)C1CSc2[nH]c(=O)sc2C1c1ccc(O)c(OC)c1 (stereo unspecified) ?
N

How did this test come out for CN(Cc1ccccc1)C(=O)c1cccc(NC(=O)Cc2ccc(NC(=O)C3CCCN(C(=O)CCc4ccccc4)C3)cc2)c1 (stereo unspecified) ?
N

How did this test come out for CCOc1ccccc1NC(=O)C1CCC(=O)N1S(=O)(=O)c1ccc(C)cc1 (stereo unspecified) ?
N

###

# TARGET_ENTITY: Corticotropin-releasing factor receptor 2/Corticotropin-releasing factor-binding protein (Homo sapiens, UniProt P24387+Q13324)
# ASSAY_METHOD_TEXT: Dose Response confirmation of uHTS hits for small molecule antagonists of the CRF-binding protein and CRF-R2 receptor complex.
# Assay type: functional
# EXPERIMENTAL_SETUP: read-out: IC50_Mean
Active and inactive are the calls of the source.
Field 'call' accepts TRUE (active), FALSE (inactive)

In [3]: df
Out[3]:
                                   compound  qualitative_label
0  Cc1nc2c(C)cccc2cc1C(=O)N/N=C/c1ccc(O)cc1               TRUE
1  CCOc1ccccc1NC(=O)C1CCC(=O)N1S(=O)(=O)c1ccc(C)cc1 (stereo not given)              FALSE
2  COc1cc(C2C(C(=O)c3ccco3)=C(O)C(=O)N2c2cc(C)on2)cc(Br)c1O (stereo not given)              FALSE
3  COc1ccc(CNC(=O)CN2CCN(S(=O)(=O)c3cc(Br)ccc3Br)CC2)cc1OC              FALSE

Could you now consider this next compound?
How did this test come out for COC(=O)C1CSc2[nH]c(=O)sc2C1c1ccc(O)c(OC)c1 (stereo not given) ?
FALSE

###

# TARGET_ENTITY: Cytochrome P450 3A4 (Homo sapiens)
# Sequence (P08684 whole entry): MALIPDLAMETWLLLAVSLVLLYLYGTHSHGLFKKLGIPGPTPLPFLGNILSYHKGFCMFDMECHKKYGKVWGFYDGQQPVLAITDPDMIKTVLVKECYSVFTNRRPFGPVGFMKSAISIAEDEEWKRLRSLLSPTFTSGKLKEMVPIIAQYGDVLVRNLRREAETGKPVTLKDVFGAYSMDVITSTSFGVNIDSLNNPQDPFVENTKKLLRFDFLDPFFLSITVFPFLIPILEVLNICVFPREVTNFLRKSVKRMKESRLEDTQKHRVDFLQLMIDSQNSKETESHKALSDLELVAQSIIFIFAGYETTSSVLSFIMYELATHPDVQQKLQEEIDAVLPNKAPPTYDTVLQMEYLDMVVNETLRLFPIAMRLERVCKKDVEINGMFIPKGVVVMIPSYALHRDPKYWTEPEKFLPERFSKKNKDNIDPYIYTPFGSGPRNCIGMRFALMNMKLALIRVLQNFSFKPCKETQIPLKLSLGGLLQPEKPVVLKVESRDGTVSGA
METRIC: AC50

In [3]: df
Out[3]:
                                   compound                  result
0   CCN(CC)S(=O)(=O)N1CCC(C(=O)NC2CCCC2)CC1  15.8 µM (inconclusive)
1  C[C@H]1CC[C@H]2C(=O)N3[C@H](c4ccc(Br)cc4)[C@@H](C)CC[C@H]3C(=O)N2[C@@H]1c1ccc(Br)cc1  3.98 µM (inconclusive)
2     CN(C)c1cc(-c2cccc(NS(C)(=O)=O)c2)ncn1  25.1 µM (inconclusive)
3  CC(C)(C)c1ccc(C2CC2C(=O)N/N=C\c2cc3ccccc3nc2Cl)cc1 (centres undefined)  15.8 µM (inconclusive)

Enter measured AC50, system Cytochrome P450 3A4 (Homo sapiens), for the compound shown: "O=c1c(-c2cccs2)nc2cnc(Oc3ccccc3)nc2n1Cc1cccs1"
15.8 µM (inconclusive)

Enter measured AC50, system Cytochrome P450 3A4 (Homo sapiens), for the compound shown: "Cc1nc2cnc(N3CCN(C)CC3)nc2n(Cc2ccc(F)cc2)c1=O"
20 µM (inconclusive)

Enter measured AC50, system Cytochrome P450 3A4 (Homo sapiens), for the compound shown: COc1ccc(S(=O)(=O)NCCC(=O)NC(C)c2ccccc2)cc1 (centres undefined)
22.4 µM (inconclusive)

Enter measured AC50, system Cytochrome P450 3A4 (Homo sapiens), for the compound shown: "CC(C)CN1CCCC2(CCN(C(=O)c3cccn3C)CC2)C1"
12.6 µM (inconclusive)

Enter measured AC50, system Cytochrome P450 3A4 (Homo sapiens), for the compound shown: "Cc1ccc(NC(=O)OCc2cn(-c3ccc(Cl)cc3)nn2)cc1"
7.94 µM (inconclusive)

Enter measured AC50, system Cytochrome P450 3A4 (Homo sapiens), for the compound shown: O=C(c1ccco1)N(CCC(c1ccccc1)c1ccco1)Cc1ccco1 (centres undefined);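 also: CYP3A4 tested as one member of a cytochrome P450 panel screen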
11.2 µM (inconclusive)

Enter measured AC50, system Cytochrome P450 3A4 (Homo sapiens), for the compound shown: "Oc1cccc(-c2nc3c4c(ncn3n2)-c2ccccc2CC42CCCC2)c1"
22.4 µM (inconclusive)

Enter measured AC50, system Cytochrome P450 3A4 (Homo sapiens), for the compound shown: "CCNC(C)(C)[C@@H](SS)c1ccc(Br)cc1"
5.01 µM (inconclusive)

Enter measured AC50, system Cytochrome P450 3A4 (Homo sapiens), for the compound shown: "Cc1cc(C(=O)OCC(=O)NCCC(C)C)c2ccccc2n1"
15.8 µM (inconclusive)

Enter measured AC50, system Cytochrome P450 3A4 (Homo sapiens), for the compound shown: "CC(C)CN1CCC2(CC1)CCN(C(=O)c1ccncc1)CC2"
15.8 µM (inconclusive)
